System: RXF-631 renal
assayRemarks: NCI tumour cell line growth inhibition, 48 h
measuredAttribute: TGI (µM)
Answer with a number only, understood to be in µM.

compound	valueObserved
Cc1oc2c(C)c3oc(=O)cc(C)c3cc2c1CN	90.4

INPUT: Sample COc1cccc2c1C(=O)c1c(O)c3c(c(O)c1C2=O)C[C@@](O)(/C(C)=N\O)C[C@@H]3OC1CC(N)C(O)C(C)O1 (stereo not given in full) — what was its TGI?
OUTPUT: 45.5

* * *

System: SF-268 CNS
assayRemarks: NCI tumour cell line growth inhibition, 48 h
measuredAttribute: TGI

compound	TGI
COC(=O)[C@H](Cc1ccccc1)NC(=O)[C@@H](OC)[C@@H]1Cc2cc3cc(OC4CC(OC5CC(O)C(O)C(C)O5)C(O)C(C)O4)c(C)c(O)c3c(O)c2C(=O)[C@H]1OC1CC(OC2CC(OC3CC(C)(O)C(O)C(C)O3)C(O)C(C)O2)C(O)C(C)O1 (some centres not stated)	2.24 µM
c1cn[nH]c1	> 10 µM
O=c1c2cccnc2ncn1CCCN1CCOCC1	> 100 µM
Cc1nn(C)c(=S)n(C)c1=O	> 100 µM
Cc1cnc2[nH]c(-c3cccc(Cl)c3)cc(=O)c2c1	34.5 µM
C=CCc1cccc2cc(C(=O)Nc3nc(C45CC6CC(CC(C6)C4)C5)cs3)c(=O)oc12	55 µM
O=[N+]([O-])c1ccc2c(c1)S(=O)c1ccccc1-2 (configuration not stated)	> 100 µM
CCOC(=O)C1(C(=O)OCC)CC=C(C)CC12C(=O)Nc1ccccc12 (configuration not stated)	> 100 µM
CC(C)(C)c1ccc(O)c(C(O)c2cccnc2)c1 (configuration not stated)	> 100 µM
Cc1nn(C(=O)c2ccc(Cl)cc2)c2c1C(c1ccco1)SC(N)=N2 (configuration not stated)	> 10 µM

INPUT: // TGI lookup, key: Cc1ccc(CC(=O)Nc2ccc(NC(=O)CNC(=O)/C=C/c3ccc(-c4ccccc4)cc3)cc2C(=O)c2ccccc2)cc1
OUTPUT: 7.51 µM

INPUT: Need TGI of O=C1CCC2CCOc3ccc(O)c1c32 (configuration not stated) , thanks.
OUTPUT: > 100 µM

INPUT: Need TGI of CC(C)C[C@H](NC(=O)[C@H](CCc1ccccc1)NC(=O)c1ccc2ccccc2n1)B(O)O , thanks.
OUTPUT: 0.397 µM

INPUT: I would be grateful if you could share the reported TGI for COc1c(Cl)c(Cl)c(OC)c2c1C(=O)C=CC2=O .
OUTPUT: 30.6 µM

INPUT: Entry under review: Cc1nc2sccn2c1C(=O)OCCOCCOCCOCCOC(=O)c1c(C)nc2sccn12 . Reported TGI?
OUTPUT: > 100 µM

INPUT: Record request: TGI value, item CCOC(=O)CCC(NC(=O)c1ccc(NCc2ccc3nc(-c4ccccc4)c(Cl)nc3c2)c2ccccc12)C(=O)OCC (configuration not stated)
OUTPUT: > 100 µM

INPUT: Suppose we examine the compound CCCCC#Cc1cccc(=O)o1 ; what TGI value has been reported?
OUTPUT: > 100 µM

INPUT: Look at this compound and give its reported TGI. Cn1c(=O)c2[nH]c(-n3nc(-c4ccccc4)cc3N)nc2n(C)c1=O
OUTPUT: > 100 µM

INPUT: # query: TGI of entry CCCC1C(C#N)(C#N)C(C#N)=C(N)C1(C)C(C)=O (configuration not stated)
OUTPUT: > 100 µM

INPUT: # TGI lookup, item COC1(OC)c2ccccc2C2(O)c3ccccc3C(=O)C12 (configuration not stated)
OUTPUT: > 100 µM

INPUT: Entry COC1CCC(n2c([C@@H]3CCCC(=O)N3c3ccc(F)c(F)c3)nc3cc(-c4c(C)noc4C)ccc32)CC1 (some centres not stated) : reported TGI = ?
OUTPUT: 56.4 µM

INPUT: Could you tell me which TGI is on file for CSc1nc(=O)c(C#N)c(-c2ccccc2)n1C1OC(COC(C)=O)C(OC(C)=O)C(OC(C)=O)C1OC(C)=O (configuration not stated) ?
OUTPUT: > 100 µM

INPUT: Item under review: OC(C(=Nc1ccccc1)c1ccccc1)c1ccccc1 (configuration not stated) . Reported TGI?
OUTPUT: 17.4 µM

INPUT: For CC12CCC(C1)C(C)(C)C2OC(=O)c1ccccc1C(=O)O (configuration not stated) , what is its reported TGI?
OUTPUT: > 100 µM

INPUT: Reported TGI for COc1cc([C@@H]2c3cc4c(cc3[C@@H](Nc3ccc(NC(=O)c5cc(NC(=O)c6cc([N+](=O)[O-])cn6C)cn5C)cc3)[C@H]3COC(=O)[C@H]23)OCO4)cc(OC)c1O : what is it?
OUTPUT: > 79.7 µM

INPUT: Which TGI value belongs to Cc1nn(-c2ccccc2)c2c1N=C(C(=O)O)CC(c1ccccc1)=N2 ?
OUTPUT: > 10 µM

INPUT: # TGI lookup, item CCCN(CCC)c1c([N+](=O)[O-])cc(C(=O)N(C)C)cc1[N+](=O)[O-]
OUTPUT: > 100 µM

INPUT: I would be grateful if you could share the reported TGI for NC(CNc1ccc(O)cc1)C(=O)O (configuration not stated) .
OUTPUT: > 100 µM

INPUT: Request the reported TGI associated with CCCCC(=O)OC[n+]1ccc2c(C)c3[nH]c4ccc(OC)cc4c3c(C)c2c1
OUTPUT: > 100 µM

INPUT: // TGI lookup, key: CC(C)(C)c1nnc2n(c1=O)N=CC(c1ccc(Br)cc1)S2 (configuration not stated)
OUTPUT: > 100 µM

INPUT: State the recorded TGI for this entry: Cc1[nH]c(=O)[nH]c(=O)c1C(=O)N(CCO)Cc1ccccc1
OUTPUT: > 100 µM

INPUT: Requested field: TGI. Item: COc1cc(C(CC(OC)OC)=C(C#N)C#N)cc(OC)c1OC
OUTPUT: > 100 µM

* * *

Here the recorded TGI is given for each entry.
System: HOP-18 NSCLC
assayRemarks: NCI tumour cell line growth inhibition, 48 h
Reply numerically in µM, unit not repeated.

These recorded examples may help you get a feel for the data.
structureSmiles	TGI, µM
CN(C)CCNC(=O)c1cccc2c1nc(-c1ccccn1)c1ccccc12	96.8
C=CCNC(=S)OCCCCCCCCCC	51.8

INPUT: Sample Cn1cnc([N+](=O)[O-])c1Sc1nnc(C(F)(F)F)n1C — what was its TGI?
OUTPUT: 76.2

* * *

Tested on: K-562 leukemia
assayRemarks: NCI tumour cell line growth inhibition, 48 h
Each record here notes measured TGI.

Answered cases to consult:
compound	TGI
CCCN(CCC)c1c([N+](=O)[O-])cc(C(=O)N(C)C)cc1[N+](=O)[O-]	> 100 µM
COc1cc2c3c(n(CCCNCCN4CCOCC4)c(=O)c2cc1OC)-c1cc2c(cc1C3=O)OCO2	> 67.1 µM
COc1cccc(C2C(C#N)=C(N)Oc3cc(OC)ccc32)c1 (configuration not stated)	> 100 µM

INPUT: Field request: TGI | item: O=[N+]([O-])c1ccc2c(c1)S(=O)c1ccccc1-2 (configuration not stated)
OUTPUT: > 100 µM

INPUT: Look at this compound and give its reported TGI. C=CCNc1cccc2c1C(=O)c1ccccc1C2(O)CC=C (configuration not stated)
OUTPUT: 95.2 µM

INPUT: I'd like to know its TGI. The compound in question is OCCNc1nc2c(N3CCCC3)nc(N3CCNCC3)nc2nc1NCc1ccccc1
OUTPUT: 30.1 µM

INPUT: Which TGI value is on record for CN(Cc1ccccc1)C1(N(C)Cc2ccccc2)CC1 ?
OUTPUT: > 100 µM

INPUT: Tell me the measured TGI of COc1ccc2sc3c(NCCCNCCO)nc4ccccc4c3c(=O)c2c1 , please.
OUTPUT: 4.32 µM

INPUT: Any idea what its TGI is? The compound is C/C(=N\n1c(Cc2ccccc2)n[nH]c1=O)c1ccc([N+](=O)[O-])cc1
OUTPUT: > 100 µM

INPUT: Could you share which TGI value was measured for C=C1C(=O)O[C@H]2[C@H]1CC/C(COC(=O)C(=O)c1cn(C)c3ccc(OC)cc13)=C\CC[C@@]1(C)O[C@@H]21 ?
OUTPUT: > 61.3 µM

INPUT: Which measured TGI value corresponds to c1cn[nH]c1 ?
OUTPUT: > 10 µM

INPUT: For the compound C=C(C(=O)OC)[C@@H]1C[C@@H](O)[C@]2(C)CC/C=C(\C)CCC[C@H](C)[C@H](O)C1O2 , what TGI is on record?
OUTPUT: 62.2 µM

INPUT: Entry Oc1ccccc1C=Nc1ccccc1N=Cc1ccccc1O has what TGI?
OUTPUT: > 100 µM

INPUT: Sample CC12CCC(C1)C(C)(C)C2OC(=O)c1ccccc1C(=O)O (configuration not stated) — what was its TGI?
OUTPUT: > 100 µM

INPUT: # input compound: CCc1nc(N)nc(N)c1-c1ccc(Cl)c(N=NN(C)C)c1 ; wanted: its TGI
OUTPUT: > 65 µM

INPUT: Which TGI is listed for c1csc(-c2nnc(C34CC5CC(CC(C5)C3)C4)o2)c1 ?
OUTPUT: > 100 µM
